system: rat isolated perfused heart; experiment: Reversal time of coronary vasodilation in rat isolated perfused hearts; conditions: bolus, rat isolated perfused heart;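 also: each agonist bolused at its minimal concentration giving equal maximal coronary conductance rise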
readout type: t0.9, time to 90% reversal of the increase in coronary conductance

- compound: "Nc1nc(-c2cnn(CCCc3ccccc3)c2)nc2c1ncn2[C@@H]1O[C@H](CO)[C@@H](O)[C@H]1O"
  value reported: "12.6 ± 0.3 min"
- compound: "Nc1nc(-c2cccs2)nc2c1ncn2[C@@H]1O[C@H](CO)[C@@H](O)[C@H]1O"
  value reported: "9.2 ± 2.2 min"
- compound: "Nc1nc(C#CCOc2ccccc2)nc2c1ncn2C1O[C@@H](CO)[C@H](O)[C@@H]1O (stereo partly shown)"
  value reported: "23.2 ± 2.1 min"
- compound: "Nc1nc(-n2cc(-c3ccc(Cl)cc3)cn2)nc2c1ncn2[C@@H]1O[C@H](CO)[C@@H](O)[C@H]1O"
  value reported: "21.3 ± 3.9 min"
